# assay info: Compound pharmacokinetics study in mice (plasma and brain)
# Assay type: in vivo
# conditions: male, Swiss; mouse, from AUC comparison brain to plasma; read-out: part of the administered compound that penetrates into the brain
# Method: Compound Pharmacokinetics Study in Mice The compound was administered to six male swiss mice (five weeks old) by the PO route and six male mice by the iv route (caudal vein). […] After blood sampling, the animals were perfused with 7 ml cold saline solution directly into the heart to extract the maximum of blood from the brain vasculature. […] Prior to the sample analysis, the suitability of the analytical method to detect the compounds to be evaluated was performed as described below. […]

molecule	Kp
COC(c1ccc(OC(F)(F)F)cc1)C1CC1c1cc(C)c(OC(C)(C)C(=O)O)c(C)c1 (single isomer, unassigned)	0.37

----------
# study target: hPPARgamma (Homo sapiens, UniProt P37231)
# Construct: Gal4-hPPARγ(LBD); Gal4 (fusion partner)
# Sequence (P37231 238-503 limits assumed): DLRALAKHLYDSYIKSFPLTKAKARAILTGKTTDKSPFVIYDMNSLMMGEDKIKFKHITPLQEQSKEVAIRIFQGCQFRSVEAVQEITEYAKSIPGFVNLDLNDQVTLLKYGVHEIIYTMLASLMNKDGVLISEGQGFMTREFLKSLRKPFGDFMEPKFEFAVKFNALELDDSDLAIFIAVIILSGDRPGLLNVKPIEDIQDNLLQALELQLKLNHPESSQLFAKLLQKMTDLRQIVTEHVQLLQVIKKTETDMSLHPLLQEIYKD
# assay info: Gal4-hPPARgamma transactivation assay in COS-7 cells (luciferase)
# conditions: Gal4-hPPARγ(LBD) transactivation
Consider the cut-off 80 nM. If the recorded EC50 is strictly smaller, the label is Satisfied; if not, the label is Not satisfied.

compound	assigned class
COC(c1ccc(OC(F)(F)F)cc1)C1CC1c1cc(C)c(OC(C)(C)C(=O)O)c(C)c1 (single isomer, unassigned) [Cpd 14-1-2]	Satisfied
CCOC(c1ccc(OC(F)(F)F)cc1)C1CC1c1cc(C)c(OC(C)(C)C(=O)O)c(C)c1 (racemic) [Cpd 10-1]	Not satisfied
COC(c1ccc(C)cc1)C1CC1c1cc(C)c(OC(C)(C)C(=O)O)c(C)c1 (racemic)	Not satisfied
COC(c1ccc(Br)cc1)C1CC1c1cc(C)c(OC(C)(C)C(=O)O)c(C)c1 (racemic) [Cpd 1-2]	Satisfied
COC(c1ccc(C(F)(F)F)cc1)C1CC1c1cc(C)c(OC(C)(C)C(=O)O)c(C)c1 (racemic)	Satisfied
COC(c1ccc(OC(F)(F)F)cc1)C1CC1c1cc(C)c(OC(C)(C)C(=O)O)c(C)c1 (stereo not shown) [Cpd 14-2-1]	Satisfied

----------
# study target: hPPARdelta (Homo sapiens)
# Construct: Gal4-hPPARδ(LBD); Gal4 (fusion partner); expressed in transfected cells; host or cells: COS-7 (monkey kidney)
# Sequence (Q03181 211-439 limits assumed): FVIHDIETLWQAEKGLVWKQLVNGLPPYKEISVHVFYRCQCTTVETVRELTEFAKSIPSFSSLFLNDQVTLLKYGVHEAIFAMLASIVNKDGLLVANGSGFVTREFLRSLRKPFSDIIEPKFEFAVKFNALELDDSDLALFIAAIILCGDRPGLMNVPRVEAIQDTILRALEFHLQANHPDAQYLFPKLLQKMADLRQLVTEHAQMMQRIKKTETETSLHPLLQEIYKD
# assay info: Gal4-hPPARdelta transactivation assay in COS-7 cells (luciferase)
# Assay type: cell-based
# conditions: Gal4-hPPARδ(LBD) transactivation
property label: EC50

compound	property label	readout value
CCOC(c1ccc(OC(F)(F)F)cc1)C1CC1c1cc(C)c(OC(C)(C)C(=O)O)c(C)c1 (racemic) [Cpd 10-2]	EC50	24 nM
COC(c1ccc(C(F)(F)F)cc1)C1CC1c1cc(C)c(OC(C)(C)C(=O)O)c(C)c1 (racemic) [Cpd 4-1]	EC50	16 nM
COC(c1ccc(OC(F)(F)F)cc1)C1CC1c1cc(C)c(OC(C)(C)C(=O)O)c(C)c1 (single isomer, unassigned) [Cpd 14-1]	EC50	7 nM
COC(c1ccc(OC(F)(F)F)cc1)C1CC1c1cc(F)c(OC(C)(C)C(=O)O)c(F)c1 (racemic) [Cpd 20-1]	EC50	87 nM
CCCCOC(c1ccc(OC(F)(F)F)cc1)C1CC1c1cc(C)c(OC(C)(C)C(=O)O)c(C)c1 (single isomer, unassigned) [Cpd 5-1]	EC50	34 nM
Cc1cc(C2CC2C(OCCC2CCCCC2)c2ccc(OC(F)(F)F)cc2)cc(C)c1OC(C)(C)C(=O)O (racemic) [Cpd 6-2]	EC50	131 nM
COC(c1ccccc1OC(F)(F)F)C1CC1c1cc(C)c(OC(C)(C)C(=O)O)c(C)c1 (single isomer, unassigned) [Cpd 13-2]	EC50	214 nM
CCCCOC(c1ccc(OC(F)(F)F)cc1)C1CC1c1cc(C)c(OC(C)(C)C(=O)O)c(C)c1 (single isomer, unassigned) [Cpd 5-2]	EC50	57 nM
COC(c1ccc(C(F)(F)F)cc1C(F)(F)F)C1CC1c1cc(C)c(OC(C)(C)C(=O)O)c(C)c1 (single isomer, unassigned) [Cpd 16-1]	EC50	44 nM
COC(c1ccc(C(F)(F)F)cc1F)C1CC1c1cc(C)c(OC(C)(C)C(=O)O)c(C)c1 (single isomer, unassigned) [Cpd 12-2]	EC50	13 nM
Cc1cc(C2CC2C(OCCC2CCCCC2)c2ccc(OC(F)(F)F)cc2)cc(C)c1OC(C)(C)C(=O)O (racemic) [Cpd 6-1]	EC50	100 nM
COC(c1ccc(C)cc1)C1CC1c1cc(C)c(OC(C)(C)C(=O)O)c(C)c1 (racemic) [Cpd 2-1]	EC50	152 nM
COC(c1ccc(Br)cc1)C1CC1c1cc(C)c(OC(C)(C)C(=O)O)c(C)c1 (racemic) [Cpd 1-1]	EC50	40 nM
COC(c1ccc(Br)cc1)C1CC1c1cc(C)c(OC(C)(C)C(=O)O)c(C)c1 (racemic) [Cpd 1-2]	EC50	54 nM
COC(c1ccc(OC(F)(F)F)cc1)C1CC1c1cc(C)c(OC(C)(C)C(=O)O)c(C)c1 (single isomer, unassigned) [Cpd 14-1-2]	EC50	4 nM
COC(c1ccc(SC(F)(F)F)cc1)C1CC1c1cc(C)c(OC(C)(C)C(=O)O)c(C)c1 (racemic) [Cpd 9-1]	EC50	14 nM
COC(c1ccc(OC(F)(F)F)cc1)C1CC1c1ccc(OC(C)(C)C(=O)O)c(C)c1 (racemic) [Cpd 7-1]	EC50	35 nM
COC(c1ccc(OC(F)(F)F)cc1)C1CC1c1cc(C)c(OC(C)(C)C(=O)O)c(C)c1 (single isomer, unassigned) [Cpd 14-1-1]	EC50	27 nM
COC(c1ccc(C(F)(F)F)cc1C(F)(F)F)C1CC1c1cc(C)c(OC(C)(C)C(=O)O)c(C)c1 (single isomer, unassigned) [Cpd 16-2]	EC50	12 nM
COC(c1ccc(SC)cc1)C1CC1c1cc(C)c(OC(C)(C)C(=O)O)c(C)c1 (single isomer, unassigned) [Cpd 3-1]	EC50	54 nM
CCOC(c1ccc(OC(F)(F)F)cc1)C1CC1c1cc(C)c(OC(C)(C)C(=O)O)c(C)c1 (racemic) [Cpd 10-1]	EC50	14 nM
CCCCCCOc1ccccc1C(OC)C1CC1c1cc(C)c(OC(C)(C)C(=O)O)c(C)c1 (racemic) [Cpd 18-1]	EC50	157 nM
COC(c1ccc(C(F)(F)F)cc1F)C1CC1c1cc(C)c(OC(C)(C)C(=O)O)c(C)c1 (single isomer, unassigned) [Cpd 12-1]	EC50	7 nM
Cc1cc(C2CC2C(OCc2ccccc2)c2ccc(OC(F)(F)F)cc2)cc(C)c1OC(C)(C)C(=O)O (single isomer, unassigned) [Cpd 11-2]	EC50	122 nM
COC(c1ccc(SC)cc1)C1CC1c1cc(C)c(OC(C)(C)C(=O)O)c(C)c1 (single isomer, unassigned) [Cpd 3-2]	EC50	169 nM
COC(c1ccc(OC(F)(F)F)cc1)C1CC1c1ccc(OC(C)(C)C(=O)O)c(C2CC2)c1 (racemic) [Cpd 21-1]	EC50	3270 nM
COc1cc(OC(F)(F)F)ccc1C(OC)C1CC1c1cc(C)c(OC(C)(C)C(=O)O)c(C)c1 (racemic) [Cpd 17-1]	EC50	6 nM
